measure: melting point (°C)

// known answers, use as guide
CCCNC(=O)COC(=O)c1ccccc1
89.5
C=CCNC(SC)=C(C#N)C#N
91
O=C(O)C1Cc2ccccc21 (stereo not given)
74
COCCOCCOCCO
-44
Cc1cccc(NC(=O)c2cnc(C(C)(C)C)c(Cl)n2)c1
99
CSc1ccc(O)cc1
86

a. C[Si](C)(C)O[Si](C)(C)O[Si](C)(C)C
b. COC(=O)c1nccnc1N
Input: Determine, for a and b , which has the greater value of melting point. Mark your selection by writing its label.
Output: b

---

measure: melting point (°C)

// known answers, use as guide
CCN(CC)C(=O)C(Cl)=C(C)OP(=O)(OC)OC
-45
COc1ccc(-c2ccc(S(=O)(=O)N3CCCC3C(=O)O)cc2)cc1 (stereo unspecified)
154
O=C1C=C(Nc2ccccc2)C(=O)c2ccccc21
193

a. COC(=O)C=C(CCl)OC
b. O=Cc1ccc(O)c(Cl)c1
Input: Determine, for a and b , which has the greater value of melting point. Mark your selection by writing its label.
Output: b

---

measure: melting point (°C)

// known answers, use as guide
CC(=O)OCC1OCC(OC(C)=O)(C2C=Nc3c2ncn(C2(OC(C)=O)COC(COC(C)=O)C2OC(C)=O)c3=O)C1OC(C)=O (centres undefined)
76
Clc1cc(Cl)c2nsnc2c1Cl
122
CCOC(=O)C=Cc1ccc(N)cc1
73
O=C1OC(c2ccccc2)=N/C1=C\c1cccc(/C=C2\N=C(c3ccccc3)OC2=O)c1
247
CCOC(=O)NC(=O)Nn1c(S)nnc1C(F)(F)F
232

1. NC(=O)c1ccccc1C(F)(F)F
2. NS(=O)(=O)c1ccc(SCCO)c(F)c1
Input: Lab log: flag the item ( 1 or 2 ) with the smaller melting point figure. Mark your selection by writing its label.
Output: 2
(2: 110 °C, 1: 163 °C)

A. Clc1ccncc1
B. CC(CCC(=O)O)C1CCC2C3C(O)CC4CC5(CCC4(C)C3CC(=O)C12C)OCCO5 (centres undefined)
Input: Determine, for A and B , which has the greater value of melting point. Mark your selection by writing its label.
Output: B
(B: 219 °C, A: -43.5 °C)

a. CC(=O)OC1CCC2(C)C(CCC3C4CCC(=NNS(=O)(=O)c5ccc(C)cc5)C4(C)CCC32)C1 (centres undefined)
b. CC1CCC(C)(COC(=O)c2ccc(N)cc2)C1(C)C (centres undefined)
c. C=CC(=O)NC(O)C(O)NC(=O)C=C (centres undefined)
d. COC(=O)CCCCCCCCC(=O)OC
Input: Put these in order: smallest melting point first, largest last. Present the labels in the sequence the task asks for.
Output: d, b, c, a
(d: 38 °C, b: 74 °C, c: 142 °C, a: 222 °C)

A. N#Cc1ccc(S(N)(=O)=O)cc1
B. CC(C)(C)c1cc2c(O)c(c1)Cc1cc(C(C)(C)C)cc(c1O)Cc1cc(C(C)(C)C)cc(c1O)Cc1cc(C(C)(C)C)cc(c1O)C2
C. CC(C)(C)[Si](Cl)(Cl)Cl
Input: Ranking field: melting point; order: falling. Present the labels in the sequence the task asks for.
Output: B, A, C

---

measure: melting point (°C)

// known answers, use as guide
CC(=O)Oc1cc(C)c(OC(C)=O)c2ccccc12
113
Cc1ccc(Cl)c(O)c1F
48
COc1c(OC)c(OC(C)=O)c2cc(F)ccc2c1OC(C)=O
102
O=[N+]([O-])c1cc([N+](=O)[O-])c(Nc2ccc3c(c2)OCCOCCOCCOCCO3)c(C(F)(F)F)c1
171
CCCCNC(=O)COC(=O)c1ccccc1
69.5

A. NCCCNCCNCCCN
B. CC(Cl)(Cl)C(=O)OCCOc1cc(Cl)c(Cl)cc1Cl
Input: Lab log: flag the item ( A or B ) with the smaller melting point figure. Mark your selection by writing its label.
Output: A
(A: -1.5 °C, B: 49.5 °C)

a. N#CC(C#N)=C(CC=O)c1ccc(Cl)cc1
b. O=C(O)c1cc(Cl)sc1Cl
Input: Determine, for a and b , which has the greater value of melting point. Mark your selection by writing its label.
Output: b

1. CCOC(=O)Nc1ccc2cc3ccc(N)c(CO)c3nc2c1
2. COc1ccccc1CN=C=S
3. CCC(=O)C(=O)CC
Input: Ranking field: melting point; order: falling. Present the labels in the sequence the task asks for.
Output: 1, 2, 3
